target: UniProtKB P21554; experiment: hCB1b Gai cyclic AMP (cAMP) TR-FRET assay, antagonism of EC80 CP55940 with forskolin; settings: hCB1b cells, 30 min pre-incubation, read-out: CB1b IC50
pIC50: −log10 of the molar value.
READOUT LABEL: pIC50

Given item C[C@H](CS(N)(=O)=O)N/C(=N\S(=O)(=O)c1ccc(Cl)cc1)N1CC(c2ccccc2)C(c2ccc(Cl)cc2)=N1 (stereo in doubt) , the value recorded as its pIC50 is 6.30 to 7.00

Given item `NS(=O)(=O)CCNC(=NS(=O)(=O)c1ccc(F)cc1)N1C[C@H](c2ccccc2)C(c2ccc(F)cc2)=N1` , the value recorded as its pIC50 is 6.30 to 7.00

Given item `C#Cc1ccc(S(=O)(=O)N=C(NCCS(N)(=O)=O)N2C[C@H](c3ccccc3)C(c3ccc(F)cc3)=N2)cc1` , the value recorded as its pIC50 is > 7.00

----------
target: Human CB1 Receptor-1b (hCB1b) (Homo sapiens (Human), UniProt P21554); experiment: hCB1b Gai cyclic AMP (cAMP) TR-FRET assay, antagonism of EC80 CP55940 with forskolin; conditions: hCB1b cells, 30 min pre-incubation, read-out: CB1b IC50
Sequence (P21554 other isoform, or with tags, fused parts or gaps): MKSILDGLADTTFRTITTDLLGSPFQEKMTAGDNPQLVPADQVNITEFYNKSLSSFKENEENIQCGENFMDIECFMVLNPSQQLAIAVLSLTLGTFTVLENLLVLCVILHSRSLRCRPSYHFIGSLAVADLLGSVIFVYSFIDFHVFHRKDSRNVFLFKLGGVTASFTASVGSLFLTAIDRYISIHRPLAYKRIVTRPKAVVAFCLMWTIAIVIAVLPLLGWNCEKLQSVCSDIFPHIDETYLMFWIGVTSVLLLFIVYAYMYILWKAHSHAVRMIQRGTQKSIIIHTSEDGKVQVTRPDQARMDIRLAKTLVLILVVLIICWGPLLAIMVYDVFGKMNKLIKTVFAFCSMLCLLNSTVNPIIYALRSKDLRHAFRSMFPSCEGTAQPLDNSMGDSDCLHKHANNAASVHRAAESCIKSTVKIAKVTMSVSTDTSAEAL
READOUT LABEL: IC50

Lab note: molecule `C[C@@H](CN/C(=N\S(=O)(=O)c1ccc(C(F)(F)F)cc1)N1C[C@H](c2ccccc2)C(c2ccc(Cl)cc2)=N1)S(N)(=O)=O` tested on Human CB1 Receptor-1b (hCB1b) (Homo sapiens (Human), UniProt P21554); recorded IC50 was 100 to 500 nM

Lab note: molecule `NS(=O)(=O)NCCN/C(=N\S(=O)(=O)c1ccc(Cl)cc1)N1C[C@H](c2ccccc2)C(c2ccc(Cl)cc2)=N1` tested on Human CB1 Receptor-1b (hCB1b) (Homo sapiens (Human), UniProt P21554); recorded IC50 was < 100 nM

Lab note: molecule `NS(=O)(=O)NC1(CN/C(=N\S(=O)(=O)c2ccc(C(F)(F)F)cc2)N2C[C@H](c3ccccc3)C(c3ccc(Cl)cc3)=N2)CC1` tested on Human CB1 Receptor-1b (hCB1b) (Homo sapiens (Human), UniProt P21554); recorded IC50 was < 100 nM

Lab note: molecule NS(=O)(=O)[C@H]1CC[C@H](N/C(=N/S(=O)(=O)c2ccc(Cl)cc2)N2C[C@H](c3ccccc3)C(c3ccc(F)cc3)=N2)CC1 (single isomer, unassigned) tested on Human CB1 Receptor-1b (hCB1b) (Homo sapiens (Human), UniProt P21554); recorded IC50 was 100 to 500 nM

Lab note: molecule NS(=O)(=O)[C@H]1CC[C@H](N/C(=N/S(=O)(=O)c2ccc(Cl)cc2)N2C[C@@H](c3ccccc3)C(c3ccc(Cl)cc3)=N2)CC1 (single isomer, unassigned) tested on Human CB1 Receptor-1b (hCB1b) (Homo sapiens (Human), UniProt P21554); recorded IC50 was 100 to 500 nM

Lab note: molecule CC(CN/C(=N\S(=O)(=O)c1ccc(Cl)cc1)N1C[C@H](c2ccccc2)C(c2ccc(Cl)cc2)=N1)NS(N)(=O)=O (stereo partly drawn) tested on Human CB1 Receptor-1b (hCB1b) (Homo sapiens (Human), UniProt P21554); recorded IC50 was < 100 nM

Lab note: molecule `CN(CCNC(=NS(=O)(=O)c1ccc(Cl)cc1)N1C[C@H](c2ccccc2)C(c2ccc(Cl)cc2)=N1)S(N)(=O)=O` tested on Human CB1 Receptor-1b (hCB1b) (Homo sapiens (Human), UniProt P21554); recorded IC50 was 100 to 500 nM

Lab note: molecule `C[C@H](CN/C(=N\S(=O)(=O)c1ccc(Cl)cc1)N1C[C@H](c2ccccc2)C(c2ccc(Cl)cc2)=N1)S(N)(=O)=O` tested on Human CB1 Receptor-1b (hCB1b) (Homo sapiens (Human), UniProt P21554); recorded IC50 was 100 to 500 nM

Lab note: molecule `NS(=O)(=O)N1CC(N/C(=N\S(=O)(=O)c2ccc(Cl)cc2)N2C[C@H](c3ccccc3)C(c3ccc(Cl)cc3)=N2)C1` tested on Human CB1 Receptor-1b (hCB1b) (Homo sapiens (Human), UniProt P21554); recorded IC50 was < 100 nM

Lab note: molecule C[C@H](CN/C(=N\S(=O)(=O)c1ccc(C(F)(F)F)cc1)N1C[C@H](c2ccccc2)C(c2ccc(F)cc2)=N1)S(N)(=O)=O (single isomer, unassigned) tested on Human CB1 Receptor-1b (hCB1b) (Homo sapiens (Human), UniProt P21554); recorded IC50 was < 100 nM

Lab note: molecule `NS(=O)(=O)[C@@H]1CC[C@@H](N/C(=N/S(=O)(=O)c2ccc(Cl)cc2)N2C[C@H](c3ccccc3)C(c3ccc(F)cc3)=N2)C1` tested on Human CB1 Receptor-1b (hCB1b) (Homo sapiens (Human), UniProt P21554); recorded IC50 was < 100 nM

Lab note: molecule `C[C@H](CS(N)(=O)=O)N/C(=N\S(=O)(=O)c1ccc(Cl)cc1)N1C[C@H](c2ccccc2)C(c2ccc(F)cc2)=N1` tested on Human CB1 Receptor-1b (hCB1b) (Homo sapiens (Human), UniProt P21554); recorded IC50 was > 500 nM

Just for reference, patent US20250248973A1 is where these values come from.
